# Test system: MDA-MB-231
# assayExplanation: Antiproliferative activity against human MDA-MB-231 cells incubated for 48 hrs by MTT assay
# Format: functional, cell-based
# testParameters: MDA-MB-231, 48 h
pIC50: −log10 of the molar value.
measuredProperty: pIC50

[P] Cc1ncsc1-c1ccc([C@H](C)NC(=O)[C@@H]2C[C@@H](O)CN2C(=O)[C@@H](NC(=O)CCCc2cn(CCCCCCCn3c(=O)c(-c4ccc(Cl)cc4Cl)cc4cnc(NC5CC5)nc43)nn2)C(C)(C)C)cc1
[Q] CNc1ncc2cc(-c3ccc(Cl)cc3Cl)c(=O)n(CCCCCCn3cc(CNc4cccc5c4C(=O)N(C4CCC(=O)NC4=O)C5=O)nn3)c2n1 (stereo not drawn)
Problem: Pick the one with the larger pIC50: P vs Q Please indicate the selected item by its label.
Result: P
(P: 5.70, Q: 4.59)

====

# Tested on: MDA-MB-231
# assayExplanation: Antiproliferative activity against human MDA-MB-231 cells incubated for 48 hrs by MTT assay
# Format: functional, cell-based
# testParameters: MDA-MB-231, 48 h
pIC50: −log10 of the molar value.
measuredProperty: pIC50

[A] Cc1ncsc1-c1ccc([C@H](C)NC(=O)[C@@H]2C[C@@H](O)CN2C(=O)[C@@H](NC(=O)CCc2cn(CCCCCCn3c(=O)c(-c4ccc(Cl)cc4Cl)cc4cnc(NC5CC5)nc43)nn2)C(C)(C)C)cc1
[B] CNc1ncc2cc(-c3ccc(Cl)cc3Cl)c(=O)[nH]c2n1
Problem: # compare pIC50 for A vs B ; return the one with the smaller value # reply format: chosen label
Result: B
(B: 4.54, A: 5.42)

====

# targetOfAssay: von Hippel-Lindau disease tumor suppressor/Serine/threonine-protein kinase PAK 1 (Homo sapiens, UniProt Q13153+P40337)
# Sequence (P40337 whole entry partner, one chain of several): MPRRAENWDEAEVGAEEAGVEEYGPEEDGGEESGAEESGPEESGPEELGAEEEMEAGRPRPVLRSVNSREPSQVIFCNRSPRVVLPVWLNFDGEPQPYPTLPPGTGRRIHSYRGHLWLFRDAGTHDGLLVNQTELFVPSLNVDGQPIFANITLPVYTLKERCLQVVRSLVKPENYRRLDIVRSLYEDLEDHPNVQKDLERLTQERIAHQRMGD
# assayExplanation: PROTAC activity at VHL/PAK1 in human MDA-MB-231 cells assessed as fold change in protein expression at 2.5 uM incubated for 48 hrs by Western blot analysis relative to control
# Assay type: cell-based
measuredProperty: fold change (FC)

In the examples that follow, each entry is paired with its recorded fold change (FC).
smi	fold change (FC)
Cc1ncsc1-c1ccc([C@H](C)NC(=O)[C@@H]2C[C@@H](O)CN2C(=O)[C@@H](NC(=O)CCCCc2cn(CCCCn3c(=O)c(-c4ccc(Cl)cc4Cl)cc4cnc(NC5CC5)nc43)nn2)C(C)(C)C)cc1	0.856
Cc1ncsc1-c1ccc([C@H](C)NC(=O)[C@@H]2C[C@@H](O)CN2C(=O)[C@@H](NC(=O)CCCc2cn(CCOCCOCCOCCn3c(=O)c(-c4ccc(Cl)cc4Cl)cc4cnc(NC5CC5)nc43)nn2)C(C)(C)C)cc1	0.949
Cc1ncsc1-c1ccc([C@H](C)NC(=O)[C@@H]2C[C@@H](O)CN2C(=O)[C@@H](NC(=O)CCc2cn(CCOCCOCCOCCn3c(=O)c(-c4ccc(Cl)cc4Cl)cc4cnc(NC5CC5)nc43)nn2)C(C)(C)C)cc1	0.929
Cc1ncsc1-c1ccc([C@H](C)NC(=O)[C@@H]2C[C@@H](O)CN2C(=O)[C@@H](NC(=O)CCc2cn(CCCCCCCn3c(=O)c(-c4ccc(Cl)cc4Cl)cc4cnc(NC5CC5)nc43)nn2)C(C)(C)C)cc1	0.29

[1] Cc1ncsc1-c1ccc([C@H](C)NC(=O)[C@@H]2C[C@@H](O)CN2C(=O)[C@@H](NC(=O)CCCCc2cn(CCCCCCCn3c(=O)c(-c4ccc(Cl)cc4Cl)cc4cnc(NC5CC5)nc43)nn2)C(C)(C)C)cc1
[2] Cc1ncsc1-c1ccc([C@H](C)NC(=O)[C@@H]2C[C@@H](O)CN2C(=O)[C@@H](NC(=O)CCc2cn(CCCCCCn3c(=O)c(-c4ccc(Cl)cc4Cl)cc4cnc(NC5CC5)nc43)nn2)C(C)(C)C)cc1
Problem: Could you determine which record has the numerically smaller fold change (FC)? Candidates: 1 and 2 Could you answer with the label of the item you picked?
Result: 2
(2: 0.329, 1: 0.812)

====

# targetOfAssay: von Hippel-Lindau disease tumor suppressor/Serine/threonine-protein kinase PAK 1 (Homo sapiens, UniProt Q13153+P40337)
# assayExplanation: PROTAC activity at VHL/PAK1 in human MDA-MB-231 cells assessed as fold change in protein expression at 2.5 uM incubated for 48 hrs by Western blot analysis relative to control
# Type: cell-based
measuredProperty: fold change (FC)

Consider the reported fold change (FC) for these molecules:
smi	fold change (FC)
Cc1ncsc1-c1ccc([C@H](C)NC(=O)[C@@H]2C[C@@H](O)CN2C(=O)[C@@H](NC(=O)CCCc2cn(CCOCCn3c(=O)c(-c4ccc(Cl)cc4Cl)cc4cnc(NC5CC5)nc43)nn2)C(C)(C)C)cc1	0.683
Cc1ncsc1-c1ccc([C@H](C)NC(=O)[C@@H]2C[C@@H](O)CN2C(=O)[C@@H](NC(=O)CCc2cn(CCCCn3c(=O)c(-c4ccc(Cl)cc4Cl)cc4cnc(NC5CC5)nc43)nn2)C(C)(C)C)cc1	0.896
Cc1ncsc1-c1ccc([C@H](C)NC(=O)[C@@H]2C[C@@H](O)CN2C(=O)[C@@H](NC(=O)CCCCc2cn(CCOCCn3c(=O)c(-c4ccc(Cl)cc4Cl)cc4cnc(NC5CC5)nc43)nn2)C(C)(C)C)cc1	0.699
Cc1ncsc1-c1ccc([C@H](C)NC(=O)[C@@H]2C[C@@H](O)CN2C(=O)[C@@H](NC(=O)CCCCc2cn(CCCCCCn3c(=O)c(-c4ccc(Cl)cc4Cl)cc4cnc(NC5CC5)nc43)nn2)C(C)(C)C)cc1	0.754

[I] Cc1ncsc1-c1ccc([C@H](C)NC(=O)[C@@H]2C[C@@H](O)CN2C(=O)[C@@H](NC(=O)CCCc2cn(CCCCCn3c(=O)c(-c4ccc(Cl)cc4Cl)cc4cnc(NC5CC5)nc43)nn2)C(C)(C)C)cc1
[II] Cc1ncsc1-c1ccc([C@H](C)NC(=O)[C@@H]2C[C@@H](O)CN2C(=O)[C@@H](NC(=O)CCc2cn(CCOCCOCCn3c(=O)c(-c4ccc(Cl)cc4Cl)cc4cnc(NC5CC5)nc43)nn2)C(C)(C)C)cc1
Problem: Between item I and item II , which reported fold change (FC) is smaller? # respond with the chosen item's label
Result: I

====

# Test system: MDA-MB-231
# assayExplanation: Antiproliferative activity against human MDA-MB-231 cells incubated for 48 hrs by MTT assay
# Assay type: functional, cell-based
# testParameters: MDA-MB-231, 48 h
measuredProperty: IC50

molecule	targetOfAssay	IC50
Cc1ncsc1-c1ccc([C@H](C)NC(=O)[C@@H]2C[C@@H](O)CN2C(=O)[C@@H](NC(=O)CCc2cn(CCCCCCCn3c(=O)c(-c4ccc(Cl)cc4Cl)cc4cnc(NC5CC5)nc43)nn2)C(C)(C)C)cc1	MDA-MB-231	1.27 µM
CNc1ncc2cc(-c3ccc(Cl)cc3Cl)c(=O)n(CCOCCOCCn3cc(CNc4cccc5c4C(=O)N(C4CCC(=O)NC4=O)C5=O)nn3)c2n1 (stereo not drawn)	MDA-MB-231	> 50 µM

// below: IC50 requested for another molecule
Problem: # get_value(readout='IC50', item= `Cc1ncsc1-c1ccc([C@H](C)NC(=O)[C@@H]2C[C@@H](O)CN2C(=O)[C@@H](NC(=O)CCCc2cn(CCOCCOCCOCCn3c(=O)c(-c4ccc(Cl)cc4Cl)cc4cnc(NC5CC5)nc43)nn2)C(C)(C)C)cc1` )
Result: > 50 µM

====

# targetOfAssay: Serine/threonine-protein kinase PAK 1 (Homo sapiens, UniProt Q13153)
# Sequence (Q13153 whole entry): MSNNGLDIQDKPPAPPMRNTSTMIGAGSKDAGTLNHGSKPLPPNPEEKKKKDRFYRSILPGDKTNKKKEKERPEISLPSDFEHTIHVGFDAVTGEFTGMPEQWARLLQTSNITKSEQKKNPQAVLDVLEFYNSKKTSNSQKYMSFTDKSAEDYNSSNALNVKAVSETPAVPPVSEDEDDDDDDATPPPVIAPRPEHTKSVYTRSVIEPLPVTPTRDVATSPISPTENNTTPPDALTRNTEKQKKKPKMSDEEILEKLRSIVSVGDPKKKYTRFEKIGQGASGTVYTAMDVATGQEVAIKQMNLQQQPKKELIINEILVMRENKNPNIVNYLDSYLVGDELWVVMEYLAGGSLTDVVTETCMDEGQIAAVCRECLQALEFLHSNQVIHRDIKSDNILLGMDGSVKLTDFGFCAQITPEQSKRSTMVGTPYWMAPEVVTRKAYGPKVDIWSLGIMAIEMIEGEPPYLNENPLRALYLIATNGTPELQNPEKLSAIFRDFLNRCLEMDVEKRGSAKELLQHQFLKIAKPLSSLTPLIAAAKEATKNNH
measuredProperty: pIC50
Hey, just a heads up that pIC50 is the negative log base 10 of the concentration in molar.

Problem: If you can, please state the reported pIC50 value of `CNc1ncc2cc(-c3ccc(Cl)cc3Cl)c(=O)[nH]c2n1` .
Result: 7.28

====

# targetOfAssay: Protein cereblon/Serine/threonine-protein kinase PAK 1 (Homo sapiens) (UniProt Q13153+Q96SW2)
# Sequence (Q96SW2 whole entry, looked up, one chain of several): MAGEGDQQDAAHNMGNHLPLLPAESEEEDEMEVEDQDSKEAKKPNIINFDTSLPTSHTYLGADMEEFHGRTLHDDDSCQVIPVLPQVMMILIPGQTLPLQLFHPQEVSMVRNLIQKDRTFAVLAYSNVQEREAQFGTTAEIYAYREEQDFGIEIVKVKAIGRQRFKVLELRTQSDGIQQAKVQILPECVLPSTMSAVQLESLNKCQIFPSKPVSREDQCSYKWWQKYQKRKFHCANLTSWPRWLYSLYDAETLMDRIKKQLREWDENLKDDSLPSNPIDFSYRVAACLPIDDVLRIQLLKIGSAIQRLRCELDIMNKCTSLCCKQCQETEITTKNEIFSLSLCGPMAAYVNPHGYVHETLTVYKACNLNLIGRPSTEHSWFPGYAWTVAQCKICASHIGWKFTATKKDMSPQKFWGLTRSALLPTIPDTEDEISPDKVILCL
# assayExplanation: PROTAC activity at CRBN/PAK1 in human MDA-MB-231 cells assessed as fold change in protein expression at 2.5 uM incubated for 48 hrs by Western blot analysis relative to control
# Format: cell-based
measuredProperty: fold change (FC)

Completed entries (count: 5):
molecule	fold change (FC)
CNc1ncc2cc(-c3ccc(Cl)cc3Cl)c(=O)n(CCOCCn3cc(CNc4cccc5c4C(=O)N(C4CCC(=O)NC4=O)C5=O)nn3)c2n1 (stereo not drawn)	0.918
O=C1CCC(N2C(=O)c3cccc(NCc4cn(CCCCn5c(=O)c(-c6ccc(Cl)cc6Cl)cc6cnc(NC7CC7)nc65)nn4)c3C2=O)C(=O)N1 (stereo not drawn)	0.761
CNc1ncc2cc(-c3ccc(Cl)cc3Cl)c(=O)n(CCCCCCCn3cc(CNc4cccc5c4C(=O)N(C4CCC(=O)NC4=O)C5=O)nn3)c2n1 (stereo not drawn)	0.545
CNc1ncc2cc(-c3ccc(Cl)cc3Cl)c(=O)n(CCOCCOCCn3cc(CNc4cccc5c4C(=O)N(C4CCC(=O)NC4=O)C5=O)nn3)c2n1 (stereo not drawn)	0.959
O=C1CCC(N2C(=O)c3cccc(NCc4cn(CCOCCOCCn5c(=O)c(-c6ccc(Cl)cc6Cl)cc6cnc(NC7CC7)nc65)nn4)c3C2=O)C(=O)N1 (stereo not drawn)	1.05

[1] O=C1CCC(N2C(=O)c3cccc(NCc4cn(CCOCCOCCOCCn5c(=O)c(-c6ccc(Cl)cc6Cl)cc6cnc(NC7CC7)nc65)nn4)c3C2=O)C(=O)N1 (stereo not drawn)
[2] CNc1ncc2cc(-c3ccc(Cl)cc3Cl)c(=O)n(CCCCCCn3cc(CNc4cccc5c4C(=O)N(C4CCC(=O)NC4=O)C5=O)nn3)c2n1 (stereo not drawn)
Problem: Which one would you say has the larger fold change (FC) value: 1 , or 2 ? Write down the label of the entry you select.
Result: 1
(1: 1.07, 2: 0.653)
